Ref: ChEMBL document CHEMBL5331122

Readings of hemolysis at 1 h, 256 µg/mL for the listed compounds
experiment: Hemolytic activity in mouse red blood cells assessed as hemolysis at 256 microg/ml incubated for 1 hr relative to control; format: toxicity, cell-based, Erythrocyte; conditions: red blood cells (erythrocytes), at 256 µg/mL, read-out: Activity
Where a SMILES comes first, the peptide text is derived from it. [ ]: non-standard residue; d: D form. The star is where a group is joined. Dab = NCC[C@H](N)C(=O)O; Hexanoyl = CCCCCC(=O)*

COMPOUND	hemolysis at 1 h, 256 µg/mL
CCC[C@H](O)CC(=O)N[C@@H](CCN)C(=O)N[C@H](C(=O)N[C@@H](CCN)C(=O)N[C@H](Cc1ccccc1)C(=O)N[C@@H](CC(C)C)C(=O)N[C@@H](CCN)C(=O)N[C@@H](C(=O)N[C@@H](CC(C)C)C(=O)N[C@H](C(N)=O)[C@@H](C)O)C(C)C)[C@@H](C)CC	< 2%
CCCCCC(=O)N[C@H]1CCNC(=O)[C@H]([C@@H](C)O)NC(=O)[C@H](CC(C)C)NC(=O)[C@@H](C(C)C)NC(=O)[C@H](CCN)NC(=O)[C@H](CC(C)C)NC(=O)[C@@H](Cc2ccccc2)NC(=O)[C@H](CCN)NC(=O)[C@H]([C@@H](C)CC)NC1=O	< 5%
CCCCCC(=O)N[C@@H](CCN)C(=O)N[C@H](C(=O)N[C@@H](CCN)C(=O)N[C@H](Cc1ccccc1)C(=O)N[C@@H](CC(C)C)C(=O)N[C@H]1CCNC(=O)[C@H]([C@@H](C)O)NC(=O)[C@H](CC(C)C)NC(=O)[C@@H](C(C)C)NC1=O)[C@@H](C)CC	< 5%
CCCCCC(=O)N[C@@H](CCN)C(=O)N[C@H](C(=O)N[C@H]1CCNC(=O)[C@H]([C@@H](C)O)NC(=O)[C@H](CC(C)C)NC(=O)[C@@H](C(C)C)NC(=O)[C@H](CCN)NC(=O)[C@H](CC(C)C)NC(=O)[C@@H](Cc2ccccc2)NC1=O)[C@@H](C)CC	< 5%
CCCCCC(=O)N[C@@H](CCN)C(=O)N[C@H](C(=O)N[C@@H](CCN)C(=O)N[C@H](Cc1ccccc1)C(=O)N[C@@H](CC(C)C)C(=O)N[C@@H](CCN)C(=O)N[C@@H](C(=O)N[C@@H](CC(C)C)C(=O)N[C@@H](C)C(N)=O)C(C)C)[C@@H](C)CC	< 5%
CCCCCC(=O)N[C@@H](CCN)C(=O)N[C@H](C(=O)N[C@@H](CCN)C(=O)N[C@H](Cc1ccccc1)C(=O)N[C@@H](CC(C)C)C(=O)N[C@@H](CCN)C(=O)N[C@@H](C(=O)N[C@@H](CC(C)C)C(=O)N[C@H](C(N)=O)[C@@H](C)O)C(C)C)[C@@H](C)CC	< 10%
CCCCCC(=O)N[C@@H](CCN)C(=O)N[C@H](C(=O)N[C@@H](CCN)C(=O)N[C@H](Cc1ccccc1)C(=O)N[C@@H](CC(C)C)C(=O)N[C@@H](CCN)C(=O)N[C@@H](C(=O)N[C@@H](CC(C)C)C(=O)N[C@@H](Cc1ccccc1)C(N)=O)C(C)C)[C@@H](C)CC	< 5%
CCCCCC(=O)N[C@@H](CCN)C(=O)N[C@H](C(=O)N[C@@H](CCN)C(=O)N[C@H](Cc1ccccc1)C(=O)N[C@@H](CC(C)C)C(=O)N[C@@H](CCN)C(=O)N[C@@H](C(=O)N[C@@H](CC(C)C)C(=O)N[C@H](C(N)=O)[C@@H](C)CC)C(C)C)[C@@H](C)CC	< 5%
CCCCCC(=O)N[C@@H](CCN)C(=O)N[C@H](C(=O)N[C@@H](CCN)C(=O)N[C@H](Cc1ccccc1)C(=O)N[C@@H](CC(C)C)C(=O)N[C@@H](CCN)C(=O)N[C@@H](C(=O)N[C@@H](CC(C)C)C(=O)N[C@@H](Cc1c[nH]c2ccccc12)C(N)=O)C(C)C)[C@@H](C)CC	< 5%
CC[C@H](C)[C@H](NC(=O)[C@H](CCN)NC(=O)CC(O)C(C)C)C(=O)N[C@@H](CCN)C(=O)N[C@H](Cc1ccccc1)C(=O)N[C@@H](CC(C)C)C(=O)N[C@@H](CCN)C(=O)N[C@@H](C(=O)N[C@@H](CC(C)C)C(=O)N[C@H](C(N)=O)[C@@H](C)O)C(C)C (stereo not given in full)	< 2%
CCCCCC(=O)N[C@@H](CCN)C(=O)N[C@H](C(=O)N[C@@H](CCN)C(=O)N[C@H](Cc1ccccc1)C(=O)N[C@@H](CC(C)C)C(=O)N[C@@H](CCN)C(=O)N[C@@H](C(=O)N[C@@H](CC(C)C)C(=O)N[C@@H](CCCCN)C(N)=O)C(C)C)[C@@H](C)CC	< 5%
CC[C@H](C)[C@@H]1NC(=O)[C@H](CCN)NC(=O)[C@H](CC(C)C)NC(=O)[C@H]([C@@H](C)O)NC(=O)[C@H](CC(C)C)NC(=O)[C@@H](C(C)C)NC(=O)[C@H](CCN)NC(=O)[C@H](CC(C)C)NC(=O)[C@@H](Cc2ccccc2)NC(=O)[C@H](CCN)NC1=O	< 5%
CCCCCC(=O)N[C@@H](CCN)C(=O)N[C@H](C(=O)N[C@@H](CCN)C(=O)N[C@H](Cc1ccccc1)C(=O)N[C@@H](CC(C)C)C(=O)N[C@@H](CCN)C(=O)N[C@@H](C(=O)N[C@@H](CC(C)C)C(=O)N[C@@H](Cc1ccc(O)cc1)C(N)=O)C(C)C)[C@@H](C)CC	< 5%
CCCCCC(=O)N[C@@H](CCN)C(=O)N[C@H](C(=O)N[C@@H](CCN)C(=O)N[C@H](Cc1ccccc1)C(=O)N[C@@H](CC(C)C)C(=O)N[C@@H](CCN)C(=O)N[C@@H](C(=O)N[C@@H](CC(C)C)C(=O)N[C@@H](CO)C(N)=O)C(C)C)[C@@H](C)CC (Hexanoyl-[Dab]I[Dab][dF]L[Dab][dV]LS-NH2)	< 5%
CCCCCCC(=O)N[C@@H](CCN)C(=O)N[C@H](C(=O)N[C@@H](CCN)C(=O)N[C@H](Cc1ccccc1)C(=O)N[C@@H](CC(C)C)C(=O)N[C@@H](CCN)C(=O)N[C@@H](C(=O)N[C@@H](CC(C)C)C(=O)N[C@@H](Cc1ccc(O)cc1)C(N)=O)C(C)C)[C@@H](C)CC	< 10%
